abundance fitness values by entry
B1: POU domain, class 2, transcription factor 2, residues 200 to 269; numbered along this chain, P09086 (parent)
chain: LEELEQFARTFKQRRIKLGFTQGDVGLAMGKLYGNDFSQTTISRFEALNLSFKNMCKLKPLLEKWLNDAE

variants of: B1; assay: abundance fitness (aPCA) (normalised: wild type 0, dead -1); higher = more abundant; growth selection in yeast, the domain comes from the species named; conditions: Homo sapiens
Respond using a number only.

Answered cases to consult:
RESIDUE CHANGE: L32Q
TEST RESULT: 0.04

RESIDUE CHANGE: F11L
TEST RESULT: -0.177

RESIDUE CHANGE: E46I
TEST RESULT: -0.956

RESIDUE CHANGE: K31E
TEST RESULT: -0.064

RESIDUE CHANGE: L4N
TEST RESULT: -0.763

Exercise: Given the entry L58H , report its measured abundance fitness.
Key: -0.221

Exercise: Cool, now S51I
Key: -0.684
